# Tested on: RAW-Dual
# MEASUREMENT_NOTES: NF-kB SEAP reporter activity, fold change vs agonist alone; higher = enhanced NF-kB activity
# TEST_CONTEXT: library stock concentration (final ~1000-fold dilution): 10 mM; cytotoxicity flag (confluency mask): not cytotoxic; agonist: MPLA (TLR4) […]
Whole data set: some 2,900 compounds, median “NF-kB SEAP reporter activity, fold change vs agonist alone” near 0.99, cut for the highest 2% near 2.6. The full list was thinned out, with the highest values kept by preference.
For each record, write down the corresponding NF-kB SEAP reporter activity.
Keep it simple and answer with nothing but the number.

q: What value of NF-kB SEAP reporter activity has been reported for the following molecule? O=C(O)C1=C/C(=N\Nc2ccc(S(=O)(=O)Nc3ccccn3)cc2)C=CC1=O
a: 1.31

q: What value of NF-kB SEAP reporter activity has been reported for the following molecule? O=c1n(CCCN2CCN(c3cccc(Cl)c3)CC2)nc2ccccn12
a: 2.42

q: What value of NF-kB SEAP reporter activity has been reported for the following molecule? Cl.Cl.NC1CCC(NC2CC2c2ccccc2)CC1 (stereo not drawn)
a: 1.37

q: What value of NF-kB SEAP reporter activity has been reported for the following molecule? Cc1cc(N=Nc2ccc3c(c2)CCC(=O)N3)c(N)cc1O
a: 1.77

q: What value of NF-kB SEAP reporter activity has been reported for the following molecule? COc1ccc(CNCc2cccc3ccccc23)cc1.Cl
a: 1.44

q: What value of NF-kB SEAP reporter activity has been reported for the following molecule? O=C(/C=C/c1ccc(O)c(O)c1/C=C/c1ccc(O)c(O)c1)OC(Cc1ccc(O)c(O)c1)C(=O)O (stereo not drawn)
a: 0.891

q: What value of NF-kB SEAP reporter activity has been reported for the following molecule? COC1/C=C/OC2(C)Oc3c(C)c(O)c4c(O)c(c(/C=N/N5CCN(C6CCCC6)CC5)c(O)c4c3C2=O)NC(=O)/C(C)=C/C=C/C(C)C(O)C(C)C(O)C(C)C(OC(C)=O)C1C (stereo not drawn)
a: 0.969

q: What value of NF-kB SEAP reporter activity has been reported for the following molecule? O=C(Nc1ccccc1C(=O)NC1CCCCNC1=O)c1cc2ccccc2s1 (stereo not drawn)
a: 1.16

q: What value of NF-kB SEAP reporter activity has been reported for the following molecule? Cc1nc2ccc(CN(C)c3ccc(C(=O)NC(CCC(=O)O)C(=O)O)s3)cc2c(=O)[nH]1 (stereo not drawn)
a: 1.45

q: What value of NF-kB SEAP reporter activity has been reported for the following molecule? N#CC1CC2CC2N1C(=O)C(N)C12CC3CC(CC(O)(C3)C1)C2 (stereo not drawn)
a: 0.875

q: What value of NF-kB SEAP reporter activity has been reported for the following molecule? CCCCN(Cc1ccc(C(=O)NO)cc1)C(=O)Nc1ccccc1
a: 2.9

q: What value of NF-kB SEAP reporter activity has been reported for the following molecule? Cc1c[nH]c(-c2cnc(NCCNc3ccc(C#N)cn3)nc2-c2ccc(Cl)cc2Cl)n1
a: 2.19

q: What value of NF-kB SEAP reporter activity has been reported for the following molecule? O=C(O)CCc1c[nH]c2ccccc12
a: 0.964

# credit: the supplement of paper PMC10037445
